Recorded values, source PubChem BioAssay (Tox21).

# METHOD_SUMMARY: qHTS assay to identify small molecule antagonists of the progesterone receptor (PR) signaling pathway - cell viability counter screen (AID 1346798); note: nearly all actives have a fitted effect of over 50% in size
# MEASUREMENT_CONDITIONS: PR-UAS-bla HEK293T viability, CellTiter-Glo luminescence, 16 h; series mostly up to 92.4 µM
Inconclusive results are not listed. The source made the active and inactive calls. Calls come from the whole dose curve; as a rule, active = well fitted cell-killing curve with a large enough effect in the repeat runs; inconclusive = weak or mixed curves, or effect the other way; inactive = no such curve, though single readings can be large or run the other way.
Lab note: assign the record to one of yes (1) = active, no (0) = inactive

In: Please indicate how the test categorized `Oc1c(Cl)cc(Cl)cc1Cl` .
Out: no (0)

In: Hello, I am checking results. What call was entered for `CO/C=C(/C(=O)OC)c1ccccc1Oc1cc(Oc2ccccc2C#N)ncn1` ?
Out: yes (1)

In: In this assay, the call recorded for `Cc1ccc2ccccc2c1C` was what?
Out: no (0)

In: Test call for this compound, please: `Oc1c(I)cc(I)cc1I`
Out: no (0)

In: # fetch the recorded call for `ClC(Cl)=C(c1ccc(Cl)cc1)c1ccccc1Cl` here
Out: no (0)

In: I'd appreciate the recorded outcome for `N#Cc1cc([N+](=O)[O-])ccc1N` from this test.
Out: no (0)

In: Short answer needed: outcome of this test for `CCN(CC)C(=O)Cl` ?
Out: no (0)

In: Test call for this compound, please: `O=[N+]([O-])c1c(Cl)c(Cl)cc(Cl)c1Cl`
Out: no (0)

In: Test call, this compound: `Nc1ccc([N+](=O)[O-])cc1`
Out: yes (1)

In: Could you please tell me the result logged for `ClC1=C(Cl)[C@]2(Cl)[C@@H]3[C@@H](Cl)[C@H]4O[C@H]4[C@@H]3C1(Cl)C2(Cl)Cl` in this assay?
Out: no (0)

In: Returns: the outcome recorded for OC(Cc1ccccc1Cl)(Cn1[nH]cnc1=S)C1(Cl)CC1 (stereo unspecified) in this assay.
Out: no (0)

---

# METHOD_SUMMARY: qHTS assay to identify small molecule antagonists of the thyroid receptor (TR) signaling pathway (AID 743065); note: nearly all actives have a fitted effect of over 55% in size
# MEASUREMENT_CONDITIONS: GH3.TRE-Luc, T3-stimulated luciferase inhibition, 23.5 h; series mostly up to 70.3 µM
# Source text: U.S. Tox21 Program National Center for Advancing Translational Sciences [NCATS] NIH Chemical Genomics Center [NCGC] U.S. Environmental Protection Agency [EPA] National Institutes of Environmental Health Sciences [NIEHS] National Toxicology Program [NTP] U.S. Food and Drug Administration [FDA] Tox21 Assay Overview: Thyroid receptor (TR), a nuclear hormone receptor, plays an important role in development, proliferation, differentiation, metabolism, brain function, and cardiovascular system. […]
Inconclusive results are not listed. The source made the active and inactive calls. Calls follow the shape of the dose curve; as a rule, active = well fitted inhibition curve with a large enough effect in the repeat runs; inconclusive = weak or mixed curves; inactive = no such curve, though single readings can be large or run the other way.
Your response should consist of one outcome taken from t = active, f = inactive

In: # lookup: test call for `Nc1ccc([N+](=O)[O-])cc1`
Out: t

In: Which result was noted for this compound in the test: CCCC(C)C1(CC)C(=O)NC(=O)NC1=O (configuration not stated)
Out: f

In: So what was the verdict on CNC(C)C(O)c1ccc(O)cc1 (configuration not stated) in this test?
Out: f

In: Any idea what this test logged for CN1c2ccccc2C(NCCCCCCC(=O)O)c2ccc(Cl)cc2S1(=O)=O (configuration not stated) ?
Out: f

In: Any idea what this test logged for `O[C@H]1[C@H]2[C@H](O)CCCN2C[C@H]1O` ?
Out: f

In: Lab log entry: C[N+]1(C)[C@@H]2CC[C@H]1CC(OC(=O)c1c[nH]c3ccccc13)C2 (some centres not stated) — outcome as called in the assay?
Out: f

In: Record lookup: outcome of this test for `O=[N+]([O-])c1cc(I)c(O)c(I)c1` ?
Out: t

In: Outcome? `Oc1ccc2c3c1O[C@H]1[C@@H](O)C=C[C@H]4[C@H](C2)NCC[C@@]341`
Out: f

In: Tell me the assay call for `C/C(=C\c1csc(C)n1)[C@@H]1C[C@@H]2O[C@]2(C)CCC[C@H](C)[C@H](O)[C@@H](C)C(=O)C(C)(C)[C@@H](O)CC(=O)O1` please.
Out: t

In: Test call for this compound, please: `O=C(O)CCCO`
Out: f

In: I would be grateful if you could indicate the recorded call for C=CCC1(C(C)CCC)C(=O)N=C(S)NC1=O (configuration not stated) .
Out: f

In: Outcome logged for CCNC1(c2cccs2)CCCCC1=O (configuration not stated) in this assay:
Out: f
